Experiment: Changes over time of Z to E transition by 19F NMR
Assay type: physicochemical
Conditions: 8 h, light 525 nm, 100 mM in DMSO
OBSERVABLE: Z isomer, changes over time (%)
Kindly answer with a numeric value in %, unit omitted.

>>> print(df.to_string())
                                   compound  meas_value
0  COc1ccc(/C=C/C(=O)c2cccc(/N=N/c3c(F)cccc3F)c2)cc1OC [Compound 17i]       66.19

INPUT: GET /values?readout=Z isomer, changes over time&item= O=C(/C=C/c1ccc(Br)cc1)c1cccc(/N=N/c2c(F)cccc2F)c1 [Compound 17l]
OUTPUT: 67.78

INPUT: GET /values?readout=Z isomer, changes over time&item= COc1cc(/C=C/C(=O)c2cccc(/N=N/c3c(F)cccc3F)c2)cc(OC)c1 [Compound 17j]
OUTPUT: 67.9

INPUT: GET /values?readout=Z isomer, changes over time&item= COc1cc(/C=C/C(=O)c2cccc(/N=N/c3c(F)cccc3F)c2)cc(OC)c1OC [Compound 17k]
OUTPUT: 67.18

###

Reported Z isomer, changes over time is given for each of the following compounds.
Test: Changes over time of Z to E transition by 19F NMR
Format: physicochemical
Conditions: 3 h, light 525 nm, 100 mM in DMSO
Number first, unit second.

Some solved entries appear below for comparison.
In [3]: df
Out[3]:
                                   compound  meas_value
0  COc1cc(/C=C/C(=O)c2cccc(/N=N/c3c(F)cccc3F)c2)cc(OC)c1OC [Compound 17k]      72.26%
1  COc1cc(/C=C/C(=O)c2cccc(/N=N/c3c(F)cccc3F)c2)cc(OC)c1 [Compound 17j]      71.23%
2  O=C(/C=C/c1ccc(Br)cc1)c1cccc(/N=N/c2c(F)cccc2F)c1 [Compound 17l]      71.56%

INPUT: GET /values?readout=Z isomer, changes over time&item= COc1ccc(/C=C/C(=O)c2cccc(/N=N/c3c(F)cccc3F)c2)cc1OC [Compound 17i]
OUTPUT: 70.9%

###

Assay: Changes over time of Z to E transition by 19F NMR
Type: physicochemical
Settings: 6 h, light 505 nm, 100 mM in DMSO
Hi! Just check whether Z isomer, changes over time is below 30%. Below gives yes (1), equal or above gives no (0).

# count of solved cases: 3
>>> print(df.to_string())
                                   compound  discrete_label
0  COc1cc(/C=C/C(=O)c2cccc(/N=N/c3ccc(F)cc3)c2)cc(OC)c1OC [Compound 17c]         yes (1)
1  COc1ccc(/C=C/C(=O)c2cccc(/N=N/c3ccc(F)cc3)c2)cc1OC [Compound 17a]         yes (1)
2  COc1cc(/C=C/C(=O)c2cccc(/N=N/c3ccc(F)cc3F)c2)cc(OC)c1 [Compound 17f]          no (0)

INPUT: Just wondering, is Z isomer, changes over time of COc1ccc(/C=C/C(=O)c2cccc(/N=N/c3ccc(F)cc3F)c2)cc1OC [Compound 17e] below 30%?
OUTPUT: no (0)

INPUT: Just wondering, is Z isomer, changes over time of COc1cc(/C=C/C(=O)c2cccc(/N=N/c3ccc(F)cc3F)c2)cc(OC)c1OC [Compound 17g] below 30%?
OUTPUT: no (0)

INPUT: Just wondering, is Z isomer, changes over time of COc1cc(/C=C/C(=O)c2cccc(/N=N/c3ccc(F)cc3)c2)cc(OC)c1 [Compound 17b] below 30%?
OUTPUT: yes (1)

###

Assay: Changes over time of Z to E transition by 19F NMR
Type: physicochemical
Conditions: 8 h, light 505 nm, 100 mM in DMSO
OBSERVABLE: Z isomer, changes over time (%)
Kindly answer with a numeric value in %, unit omitted.

Some solved entries appear below for comparison.
In [3]: df
Out[3]:
                                   molecule  u  meas_value
0  COc1ccc(/C=C/C(=O)c2cccc(/N=N/c3ccc(F)cc3F)c2)cc1OC [Compound 17e]  %       42.17
1  COc1cc(/C=C/C(=O)c2cccc(/N=N/c3ccc(F)cc3F)c2)cc(OC)c1 [Compound 17f]  %       41.87
2  COc1cc(/C=C/C(=O)c2cccc(/N=N/c3ccc(F)cc3F)c2)cc(OC)c1OC [Compound 17g]  %       38.78
3  COc1ccc(/C=C/C(=O)c2cccc(/N=N/c3ccc(F)cc3)c2)cc1OC [Compound 17a]  %       26.02

INPUT: GET /values?readout=Z isomer, changes over time&item= COc1cc(/C=C/C(=O)c2cccc(/N=N/c3ccc(F)cc3)c2)cc(OC)c1OC [Compound 17c]
OUTPUT: 23.17

INPUT: GET /values?readout=Z isomer, changes over time&item= COc1cc(/C=C/C(=O)c2cccc(/N=N/c3ccc(F)cc3)c2)cc(OC)c1 [Compound 17b]
OUTPUT: 24.03

###

Test: Changes over time of Z to E transition by 19F NMR
Type: physicochemical
Conditions: 6 h, light 525 nm, 100 mM in DMSO
Reported Z isomer, changes over time is given for each of the following molecules.
Kindly answer with a numeric value in %, unit omitted.

>>> df
                                   molecule  meas_value
0  COc1ccc(/C=C/C(=O)c2cccc(/N=N/c3c(F)cccc3F)c2)cc1OC [Compound 17i]          68
1  COc1cc(/C=C/C(=O)c2cccc(/N=N/c3c(F)cccc3F)c2)cc(OC)c1 [Compound 17j]       69.58
2  O=C(/C=C/c1ccc(Br)cc1)c1cccc(/N=N/c2c(F)cccc2F)c1 [Compound 17l]       68.63

Note: attention shifts to another entry.
INPUT: GET /values?readout=Z isomer, changes over time&item= COc1cc(/C=C/C(=O)c2cccc(/N=N/c3c(F)cccc3F)c2)cc(OC)c1OC [Compound 17k]
OUTPUT: 69.33

###

Experiment: Changes over time of Z to E transition by 19F NMR
Format: physicochemical
Conditions: light 505 nm, 100 mM in DMSO
Source text: We can observe that for electromagnetic radiation in the range of wavelengths 390 nm to 610 nm, transitions from E to Z of about 0–76% are obtained. The best results for all compounds are in visible wavelengths 505 nm or 525 nm (30.59–75.44%). […] Then we measured changes over time (transitions from Z to E, upon irradiation with 505 nm for (17a–17c) and (17e–17g), and 525 nm for (17i–17l) compounds (Figure 3, and see Section S4.3 in Supplementary Materials).
Classify by measured Δ (Z to E change 0 h to 8 h): fulfilled if it is equal to or exceeds 6%, not fulfilled if it is smaller.

# count of solved cases: 3
>>> df
                                   molecule  discrete_label
0  COc1cc(/C=C/C(=O)c2cccc(/N=N/c3ccc(F)cc3F)c2)cc(OC)c1 [Compound 17f]   not fulfilled
1  COc1cc(/C=C/C(=O)c2cccc(/N=N/c3ccc(F)cc3)c2)cc(OC)c1 [Compound 17b]       fulfilled
2  COc1ccc(/C=C/C(=O)c2cccc(/N=N/c3ccc(F)cc3F)c2)cc1OC [Compound 17e]   not fulfilled

INPUT: Could you verify whether the entry COc1cc(/C=C/C(=O)c2cccc(/N=N/c3ccc(F)cc3)c2)cc(OC)c1OC [Compound 17c] shows Δ (Z to E change 0 h to 8 h) of no less than 6%?
OUTPUT: fulfilled

INPUT: Could you verify whether the entry COc1ccc(/C=C/C(=O)c2cccc(/N=N/c3ccc(F)cc3)c2)cc1OC [Compound 17a] shows Δ (Z to E change 0 h to 8 h) of no less than 6%?
OUTPUT: fulfilled

###

Experiment: Changes over time of Z to E transition by 19F NMR
Format: physicochemical
Conditions: 4 h, light 505 nm, 100 mM in DMSO
OBSERVABLE: Z isomer, changes over time (%)
Kindly answer with a numeric value in %, unit omitted.

>>> df
                                   compound                   observable  meas_value
0  COc1cc(/C=C/C(=O)c2cccc(/N=N/c3ccc(F)cc3F)c2)cc(OC)c1 [Compound 17f]  Z isomer, changes over time       44.28
1  COc1cc(/C=C/C(=O)c2cccc(/N=N/c3ccc(F)cc3)c2)cc(OC)c1 [Compound 17b]  Z isomer, changes over time       28.37
2  COc1cc(/C=C/C(=O)c2cccc(/N=N/c3ccc(F)cc3F)c2)cc(OC)c1OC [Compound 17g]  Z isomer, changes over time       41.25
3  COc1cc(/C=C/C(=O)c2cccc(/N=N/c3ccc(F)cc3)c2)cc(OC)c1OC [Compound 17c]  Z isomer, changes over time       25.95
4  COc1ccc(/C=C/C(=O)c2cccc(/N=N/c3ccc(F)cc3F)c2)cc1OC [Compound 17e]  Z isomer, changes over time       43.55

Note: attention shifts to another entry.
INPUT: GET /values?readout=Z isomer, changes over time&item= COc1ccc(/C=C/C(=O)c2cccc(/N=N/c3ccc(F)cc3)c2)cc1OC [Compound 17a]
OUTPUT: 28.74
